Overview of reported IC50 across a group of binders:
biological target: T1, Human PCSK9 Alexa Fluor 647 (human, UniProt Q8NBP7 31-692, limits assumed, Alexa Fluor 647 label (site not stated)); test: TR-FRET competition: PCSK9-Alexa Fluor 647 vs LDLR ECD-Eu kryptate
T1 construct: Labelled tracer of the TR-FRET assay, 16 nM stock; also called proprotein convertase subtilisin/kexin type 9
T1 sequence (Q8NBP7 31-692 limits assumed): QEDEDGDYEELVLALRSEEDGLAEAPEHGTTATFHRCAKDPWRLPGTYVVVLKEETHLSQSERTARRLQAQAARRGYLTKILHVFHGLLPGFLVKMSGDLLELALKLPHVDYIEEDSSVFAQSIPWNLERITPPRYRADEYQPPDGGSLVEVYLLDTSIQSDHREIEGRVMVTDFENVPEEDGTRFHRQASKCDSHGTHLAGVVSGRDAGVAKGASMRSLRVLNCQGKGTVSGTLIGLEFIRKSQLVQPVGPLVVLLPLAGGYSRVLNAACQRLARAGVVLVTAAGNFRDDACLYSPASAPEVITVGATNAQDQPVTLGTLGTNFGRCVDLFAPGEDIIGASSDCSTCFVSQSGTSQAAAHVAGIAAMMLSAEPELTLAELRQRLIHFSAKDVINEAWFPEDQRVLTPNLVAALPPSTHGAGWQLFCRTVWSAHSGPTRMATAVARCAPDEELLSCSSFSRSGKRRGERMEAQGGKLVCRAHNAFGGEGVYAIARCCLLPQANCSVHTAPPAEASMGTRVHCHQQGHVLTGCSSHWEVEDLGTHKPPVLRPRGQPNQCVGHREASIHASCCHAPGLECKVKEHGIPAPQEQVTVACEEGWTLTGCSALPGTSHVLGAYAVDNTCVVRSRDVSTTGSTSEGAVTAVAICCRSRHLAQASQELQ
Bridge positions count the residues as written; N and C are the ends. Square brackets hold non-standard residues; d marks the D form. Bip = N[C@@H](Cc1ccc(-c2ccccc2)cc1)C(=O)O; Phe(3-F) = N[C@@H](Cc1cccc(F)c1)C(=O)O; NMeA = CN[C@@H](C)C(=O)O

| BINDER | U | IC50 |
| --- | --- | --- |
| {CH2CO}-FVSTT[Bip][NMeA][Phe(3-F)][NMeA]DRPCG-NH2 (thioether N-13; SMILES CC(C)[C@@H]1NC(=O)[C@H](Cc2ccccc2)NC(=O)CSC[C@@H](C(=O)NCC(N)=O)NC(=O)[C@@H]2CCCN2C(=O)[C@H](CCCNC(=N)N)NC(=O)[C@H](CC(=O)O)NC(=O)[C@H](C)N(C)C(=O)[C@H](Cc2cccc(F)c2)NC(=O)[C@H](C)N(C)C(=O)[C@H](Cc2ccc(-c3ccccc3)cc2)NC(=O)[C@H]([C@@H](C)O)NC(=O)[C@H]([C@@H](C)O)NC(=O)[C@H](CO)NC1=O, also called 1-15; Ex. No. 1-15) [Ac*-F-V-S-T-T-B-(N-Me)A-(3-F)F-(N-Me)A-D-R-P-C*-G-NH2] | nM | 12 |
| {CH2CO}-FVSTT[Bip][NMeA][Bip][NMeA]DRPC-NH2 (thioether N-13; SMILES CC(C)[C@@H]1NC(=O)[C@H](Cc2ccccc2)NC(=O)CSC[C@@H](C(N)=O)NC(=O)[C@@H]2CCCN2C(=O)[C@H](CCCNC(=N)N)NC(=O)[C@H](CC(=O)O)NC(=O)[C@H](C)N(C)C(=O)[C@H](Cc2ccc(-c3ccccc3)cc2)NC(=O)[C@H](C)N(C)C(=O)[C@H](Cc2ccc(-c3ccccc3)cc2)NC(=O)[C@H]([C@@H](C)O)NC(=O)[C@H]([C@@H](C)O)NC(=O)[C@H](CO)NC1=O, also called 2-4; Ex. No. 2-4) [Ac*-F-V-S-T-T-B-(N-Me)A-B-(N-Me)A-D-R-P-C*-NH2] | nM | 1.8 |
